- target: Pyruvate kinase PKM (Homo sapiens)
- assay details: Activation of PKM2 (unknown origin) assessed as PEP conversion to pyruvate measured as concentration required for 50% activation by luminescence assay
- settings: read-out: AC50
- Sequence (P14618 whole entry): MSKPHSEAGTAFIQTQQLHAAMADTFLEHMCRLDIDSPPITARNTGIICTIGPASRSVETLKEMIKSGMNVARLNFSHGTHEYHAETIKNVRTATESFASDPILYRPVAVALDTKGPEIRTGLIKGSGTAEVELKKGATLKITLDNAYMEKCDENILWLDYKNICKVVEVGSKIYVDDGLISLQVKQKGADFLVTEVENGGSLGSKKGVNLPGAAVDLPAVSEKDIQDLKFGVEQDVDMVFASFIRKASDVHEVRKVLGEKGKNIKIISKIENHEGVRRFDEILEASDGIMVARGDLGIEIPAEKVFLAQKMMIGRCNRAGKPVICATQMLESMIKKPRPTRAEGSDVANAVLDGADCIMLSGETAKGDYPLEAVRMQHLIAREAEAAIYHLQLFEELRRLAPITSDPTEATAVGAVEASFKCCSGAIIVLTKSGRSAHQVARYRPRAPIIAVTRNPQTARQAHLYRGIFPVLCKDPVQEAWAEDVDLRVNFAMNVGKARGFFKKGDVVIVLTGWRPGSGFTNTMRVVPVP
# maps each entry to its AC50
Please respond with the number in µM and leave the unit unwritten.

Example cases with answers are listed next.
[
  {
    "structure notation": "O=C(c1cc(Br)n[nH]1)N(Cc1cccc2[nH]c(=O)sc12)CC1CCC1",
    "AC50 [µM]": 3.05
  },
  {
    "structure notation": "O=C(c1cc(Br)c[nH]1)N(Cc1ccccc1)CC1CC1",
    "AC50 [µM]": 12.2
  }
]

q: What value of AC50 has been reported for the following compound? O=C(c1cc(Br)c[nH]1)N(Cc1ccccc1)CC1CCC1
a: 2.3

q: State the recorded AC50 for this entry: O=C(c1cc(Br)c[nH]1)N(Cc1cccc(F)c1)CC1CCC1
a: 3.85

----------
- target: UniProtKB P14618
- assay details: Activation of PKM2 in human NCI-H1299 cells
- Format: cell-based
- Sequence (P14618 2-531 limits assumed): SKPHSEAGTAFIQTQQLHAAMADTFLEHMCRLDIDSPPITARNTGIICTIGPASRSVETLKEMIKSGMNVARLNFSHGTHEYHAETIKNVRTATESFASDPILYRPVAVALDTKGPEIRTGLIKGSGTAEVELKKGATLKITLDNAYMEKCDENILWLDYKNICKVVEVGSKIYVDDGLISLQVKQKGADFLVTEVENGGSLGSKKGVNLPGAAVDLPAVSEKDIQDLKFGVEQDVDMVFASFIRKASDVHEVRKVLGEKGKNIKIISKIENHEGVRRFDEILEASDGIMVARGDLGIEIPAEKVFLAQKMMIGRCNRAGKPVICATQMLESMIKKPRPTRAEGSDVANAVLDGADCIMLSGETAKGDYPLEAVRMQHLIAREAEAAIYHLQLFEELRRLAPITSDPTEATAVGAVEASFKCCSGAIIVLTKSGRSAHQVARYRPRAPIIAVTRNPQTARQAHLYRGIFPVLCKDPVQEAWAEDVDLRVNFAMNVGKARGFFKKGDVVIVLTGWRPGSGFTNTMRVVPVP
endpoint label: log10 of Activity (log10 of the value in µM)
Remember, log10 of Activity, in µM.

[
  {
    "structure notation": "O=C(c1cc(Cl)n[nH]1)N(Cc1ccc(O)cc1F)CC1CCC1",
    "observed": -0.52
  },
  {
    "structure notation": "O=C(c1cc(Br)n[nH]1)N(Cc1ccc(O)cc1F)CC1CCC1",
    "observed": -1.26
  },
  {
    "structure notation": "O=C(c1cc(C(F)(F)F)n[nH]1)N(Cc1ccc(O)cc1F)CC1CCC1",
    "observed": -0.66
  },
  {
    "structure notation": "O=C(c1cc(Br)n[nH]1)N(Cc1cccc2[nH]c(=O)sc12)CC1CCC1",
    "observed": 1.22
  },
  {
    "structure notation": "O=C(c1cc(Cl)n[nH]1)N(Cc1cccc2[nH]ncc12)CC1CCC1",
    "observed": 0.81
  },
  {
    "structure notation": "O=C(c1cc(Br)n[nH]1)N(Cc1cccc2[nH]cnc12)CC1CCC1",
    "observed": 0.15
  }
]

q: Dear colleague, I am looking for the recorded log10 of Activity of the following molecule: O=C(c1cc(C(F)(F)F)n[nH]1)N(Cc1cccc2[nH]ccc12)CC1CCC1
a: -0.44

----------
- target: Pyruvate kinase PKM (Homo sapiens, UniProt P14618)
- assay details: Activation of PKM2 (unknown origin) assessed as PEP conversion to pyruvate measured as concentration required for 50% activation by luminescence assay
- settings: read-out: AC50
// classify(record): look up AC50 in ranges class A = under 2 µM, class B = from 2 µM up to 4 µM, class C = 4 µM and over

[
  {
    "structure notation": "O=C(c1cc(Br)c[nH]1)N(Cc1ccccc1O)CC1CCC1",
    "qualitative label": "class A"
  }
]

Attention now turns to another entry.
q: Which bin, given its AC50, does O=C(c1cc(Br)c[nH]1)N(Cc1ccc(F)cc1)CC1CCC1 occupy?
a: class C

----------
- target: Pyruvate kinase PKM (Homo sapiens, UniProt P14618)
- assay details: Activation of PKM2 (unknown origin) assessed as PEP conversion to pyruvate measured as concentration required for 50% activation by luminescence assay
- settings: read-out: AC50
endpoint label: log10 of AC50 (log10 of the value in µM)
Each number you see is log10 of AC50, and the unit inside the log is µM.

q: Entry O=C(c1cc(Br)n[nH]1)N(Cc1ccc(O)cc1F)CC1CCC1 : reported log10 of AC50 = ?
a: -1.47

q: State the recorded log10 of AC50 for this entry: O=C(NCc1ccccc1)c1cc(Br)c[nH]1
a: 1.56

q: # query: log10 of AC50 of entry O=C(c1cc(Br)c[nH]1)N(Cc1ccc(O)cc1)CC1CCC1
a: 0.23

q: Requested read-out: log10 of AC50. Entry: O=C(c1cc(Br)c[nH]1)N(Cc1ccccc1F)CC1CCC1
a: 0.59

q: Can you share its log10 of AC50? I mean this molecule: O=C(c1cc(Br)n[nH]1)N(Cc1cccc2[nH]ncc12)CC1CCC1
a: 0.50

q: Which value of log10 of AC50 has been reported for O=C(c1cc(Br)c[nH]1)N(Cc1ccc(O)cc1F)CC1CCC1 in the records?
a: -0.12

q: Please give the measured log10 of AC50 for this molecule: CCCCCN(Cc1ccccc1)C(=O)c1cc(Br)c[nH]1
a: 0.65

q: # query: log10 of AC50 of entry CCCCN(Cc1ccccc1)C(=O)c1cc(Br)c[nH]1
a: 0.80

q: I have this molecule here, N#Cc1cc(C(=O)N(Cc2ccc(O)cc2F)CC2CCC2)[nH]n1 , and I need its recorded log10 of AC50.
a: 0.65

q: Entry O=C(c1cc(Cl)n[nH]1)N(Cc1cccc2[nH]ccc12)CC1CCC1 has what log10 of AC50?
a: -0.12

----------
- target: Pyruvate kinase PKM (Homo sapiens)
- assay details: Activation of PKM2 (unknown origin) assessed as PEP conversion to pyruvate measured as concentration required for 50% activation by luminescence assay
- settings: read-out: AC50
Measured AC50 by item
Report the figure in µM without appending any unit label.

[
  {
    "structure notation": "O=C(c1cc(Cl)n[nH]1)N(Cc1cccc2[nH]ncc12)CC1CCC1",
    "AC50, µM": 2.93
  },
  {
    "structure notation": "CCCN(Cc1ccccc1)C(=O)c1cc(Br)c[nH]1",
    "AC50, µM": 6
  }
]

Now take the following compound into account.
q: Fill in the blank: the reported AC50 of O=C(c1cc(Br)c[nH]1)N(Cc1cccc(O)c1)CC1CCC1 is ____.
a: 3.03
